# tested-system: Stimulator of interferon genes protein (Homo sapiens)
# test: Inhibition of STING in human THP1-Dual KI-hSTING-R232 cells assessed as cGAMP-induced IRF luciferase expression at 1 uM incubated for 2 hrs by QUANTI-Luc reagent based luciferase reporter assay
# Assay type: cell-based
Active and inactive are the calls of the source. The calls are words filed in the database; no cut-off is given here.
Reply using exactly one outcome from 1 for active, -1 for inactive

Consider the worked cases shown below.
// param item: O=C(Nc1cccc(Cl)c1)Nc1c[nH]c2ccccc12 ; yields the recorded call
1

And Cn1cc(NC(=O)Nc2ccc(F)c(F)c2)c2ccccc21 ?
-1

And Cc1ccccc1NC(=O)Nc1c[nH]c2ccccc12 ?
-1

Continuing:
// param item: CN(C(=O)Nc1c[nH]c2ccccc12)c1ccccc1 ; yields the recorded call
-1

And Cn1cc(NC(=O)Nc2ccc(F)c(Cl)c2)c2ccccc21 ?
-1

And Cc1ccc(NC(=O)Nc2c[nH]c3ccccc23)c(C)c1 ?
-1

And CC(=O)c1ccc(NC(=O)Nc2cn(C)c3ccccc23)cc1 ?
-1

And O=C(Nc1c[nH]c2ccccc12)N1Cc2ccccc2C1 ?
-1

And O=C(Nc1ccc2c(c1)OCCO2)Nc1c[nH]c2ccccc12 ?
-1

And Cc1cccc(NC(=O)Nc2c[nH]c3ccccc23)c1C ?
-1

And CCc1ccccc1NC(=O)Nc1c[nH]c2ccccc12 ?
-1

And Cn1cc(NC(=O)Nc2ccc(OC(F)(F)F)cc2)c2ccccc21 ?
-1

And COc1cccc(NC(=O)Nc2c[nH]c3ccccc23)c1 ?
1

And CCc1ccc(NC(=O)Nc2cn(C)c3ccccc23)cc1 ?
-1

And NC(=O)c1ccc(NC(=O)Nc2c[nH]c3ccccc23)cc1 ?
-1

And Cc1cccc(NC(=O)Nc2c[nH]c3ccccc23)c1 ?
1

And Cn1cc(NC(=O)Nc2ccc(C(N)=O)cc2)c2ccccc21 ?
-1

And CN(C)c1ccc(NC(=O)Nc2c[nH]c3ccccc23)cc1 ?
-1

And O=C(Nc1cccc(F)c1)Nc1c[nH]c2ccccc12 ?
1

And COc1ccc(NC(=O)Nc2c[nH]c3ccccc23)cc1 ?
-1

Values compiled from ChEMBL document CHEMBL5390249.
